# ASSAY INFO: Selectivity index, ratio of CC50 for human MT4 cells to EC50 for antiviral activity against HIV1 3B infected in human MT4 cells
# Format: toxicity, cell-based
# MEASUREMENT CONDITIONS: read-out: Ratio CC50/EC50
VALUE KIND: selectivity ratio
Answers are plain numbers.

Here are 5 compounds together with their reported answers.
[
  {
    "SMILES REPR": "COc1cc2nc(NC3CCN(CC(=O)N4CCOCC4)CC3)nc(Oc3c(C)cc(C#N)cc3C)c2cc1OC",
    "selectivity ratio": 97
  },
  {
    "SMILES REPR": "Cc1cc(C#N)cc(C)c1Oc1nc(NC2CCN(CCN3CCOCC3)CC2)nc2c1SCC2",
    "selectivity ratio": 376
  },
  {
    "SMILES REPR": "Cc1cc(C#N)cc(C)c1Oc1nc(NC2CCN(CC(=O)N3CCOCC3)CC2)nc2sccc12",
    "selectivity ratio": 442
  },
  {
    "SMILES REPR": "Cc1cc(C#N)cc(C)c1Oc1nc(NC2CCN(CC(=O)N3CCOCC3)CC2)nc2ccccc12",
    "selectivity ratio": 71
  },
  {
    "SMILES REPR": "Cc1cc(C#N)cc(C)c1Oc1nc(NC2CCN(CCN3CCOCC3)CC2)nc2ccoc12",
    "selectivity ratio": 125
  }
]

I'm hoping you can list selectivity ratio for every compound here, please.
1. Cc1cc(C#N)cc(C)c1Oc1nc(NC2CCN(CC(=O)N3CCOCC3)CC2)nc2c1CCC2
2. Cc1cc(C#N)cc(C)c1Oc1nc(NC2CCN(CC(=O)N3CCOCC3)CC2)nc2ccsc12
3. Cc1cc(C#N)cc(C)c1Oc1nc(NC2CCN(CCN3CCOCC3)CC2)nc2scnc12
4. Cc1cc(C#N)cc(C)c1Oc1nc(NC2CCN(CCN3CCOCC3)CC2)nc2cc(F)ccc12

A.
[696, 416, 305, 70]

---

# System: Human immunodeficiency virus 1
# ASSAY INFO: Antiviral activity against HIV1 harboring RT E138K mutant infected in human MT4 cells assessed as inhibition of virus-induced cytopathic effect incubated for 5 days by MTT assay
# Format: functional, organism-based
# MEASUREMENT CONDITIONS: Human immunodeficiency virus 1, MT4, 120 h
So I've got a bunch of compounds here, and I need their EC50 values.
Numbers only, in nM.

Worked cases, EC50 given:
[
  {
    "SMILES REPR": "Cc1cc(C#N)cc(C)c1Oc1nc(NC2CCN(CCN3CCOCC3)CC2)nc2c1CSC2",
    "EC50, nM": 1180
  },
  {
    "SMILES REPR": "Nc1ccn([C@@H]2CS[C@H](CO)O2)c(=O)n1",
    "EC50, nM": 6640
  },
  {
    "SMILES REPR": "Cc1cc(C#N)cc(C)c1Oc1nc(NC2CCN(CC(=O)N3CCOCC3)CC2)nc2c1SCC2",
    "EC50, nM": 1310
  },
  {
    "SMILES REPR": "Cc1cc(C#N)cc(C)c1Oc1nc(NC2CCN(CC(=O)N3CCOCC3)CC2)nc2c1CSC2",
    "EC50, nM": 627
  },
  {
    "SMILES REPR": "Cc1cn([C@H]2C[C@H](N=[N+]=[N-])[C@@H](CO)O2)c(=O)[nH]c1=O",
    "EC50, nM": 27
  },
  {
    "SMILES REPR": "Cc1cc(C#N)cc(C)c1Oc1nc(NC2CCN(CC(=O)N3CCOCC3)CC2)nc2ccsc12",
    "EC50, nM": 171
  },
  {
    "SMILES REPR": "Cc1cc(C#N)cc(C)c1Oc1nc(NC2CCN(CCN3CCOCC3)CC2)nc2ccsc12",
    "EC50, nM": 437
  }
]

Let us move to another entry and its EC50.
Q. # returns recorded EC50 (system: Human immunodeficiency virus 1) for Cc1ccnc2c1NC(=O)c1cccnc1N2C1CC1
A. 191
